Hey, just so you know, these numbers are from patent US4224342A.

- test details: Acute toxicity in rats
- condition info: rat, in vivo, route and LD50 not given
metric name: LD50 (mg/kg)

INSERT INTO measurements (structure, metric_name, measured) VALUES
  ('CS(=O)(=O)O.N=C(N)Nc1ccc(C(=O)Oc2ccc(CC(=O)O)cc2)cc1', 'LD50', 4400);

----------
The following are reported IC50 results, target or system UniProt:P00760.
Sequence (P00760 24-246): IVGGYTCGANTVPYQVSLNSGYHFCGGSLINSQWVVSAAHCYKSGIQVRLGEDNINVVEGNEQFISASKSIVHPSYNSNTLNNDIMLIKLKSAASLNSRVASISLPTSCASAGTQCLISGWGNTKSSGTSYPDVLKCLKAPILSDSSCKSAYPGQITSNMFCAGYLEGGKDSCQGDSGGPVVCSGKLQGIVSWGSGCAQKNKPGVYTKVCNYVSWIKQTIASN
metric name: IC50 (µM)

INSERT INTO measurements (structure, metric_name, measured) VALUES
  ('COC(=O)Cc1ccc(OC(=O)c2ccc(NC(=N)N)cc2)cc1', 'IC50', 0.009),
  ('N=C(N)Nc1ccc(C(=O)Oc2ccc(CC(=O)O)cc2)cc1', 'IC50', 0.029);
